# Test system: Enterococcus faecium EFM.384, Daptomycin resistant mutant (14-A)
# Type: cell-based
# Conditions: MHBc with 50 mg/L calcium, 18-20 hours at 37° C.
Readout Name: Efm384 MIC (µg/mL)
One number for each entry, in µg/mL.

Recorded Efm384 MIC, per entry:
Ask: Return reported Efm384 MIC; argument: `C[C@H](CC(=O)O)[C@@H]1NC(=O)[C@@H](CO)NC(=O)CNC(=O)[C@H](CC(=O)O)NC(=O)[C@@H](C)NC(=O)[C@H](CC(=O)O)NC(=O)[C@H](CCCN)NC(=O)CNC(=O)[C@@H](NC(=O)[C@H](CC(=O)O)NC(=O)[C@@H](CC(N)=O)NC(=O)[C@H](Cc2c[nH]c3ccccc23)NC(=O)CCCCC2CCCCC2)[C@@H](C)OC(=O)[C@H](CC(=O)c2ccccc2N)NC1=O`
Reply: 32

Ask: Another compound: `CCCCCCCCOc1ccc(-c2ccc(C(=O)N[C@@H](Cc3c[nH]c4ccccc34)C(=O)N[C@H](CC(N)=O)C(=O)N[C@@H](CC(=O)O)C(=O)N[C@@H]3C(=O)NCC(=O)N[C@@H](CCCN)C(=O)N[C@@H](CC(=O)O)C(=O)N[C@H](C)C(=O)N[C@@H](CC(=O)O)C(=O)NCC(=O)N[C@H](CO)C(=O)N[C@@H]([C@H](C)CC(=O)O)C(=O)N[C@@H](CC(=O)c4ccccc4N)C(=O)O[C@@H]3C)cc2)cc1`
Reply: 4

Others:
Ask: Which measured Efm384 MIC value corresponds to `C[C@H](CC(=O)O)[C@@H]1NC(=O)[C@@H](CO)NC(=O)CNC(=O)[C@H](CC(=O)O)NC(=O)[C@@H](C)NC(=O)[C@H](CC(=O)O)NC(=O)[C@H](CCCN)NC(=O)CNC(=O)[C@@H](NC(=O)[C@H](CC(=O)O)NC(=O)[C@@H](CC(N)=O)NC(=O)[C@H](Cc2c[nH]c3ccccc23)NC(=O)c2ccc(-c3ccc(-c4ccccc4)cc3)cc2)[C@@H](C)OC(=O)[C@H](CC(=O)c2ccccc2N)NC1=O` ?
Reply: 4
